Tested on: HS 578T breast
Test: NCI tumour cell line growth inhibition, 48 h
Each entry below carries its recorded TGI.

Item under review: "[O-][N+]1=NC(c2ccccc2)=C1c1ccccc1" . Reported TGI?
> 50 µM

What would you report for "O=C(O)CN1CCN(CC(=O)N2CCN(C(=O)OCc3ccccc3)CC2)CCN(CC(=O)O)CCN(CC(=O)N2CCN(C(=O)OCc3ccccc3)CC2)CC1" ?
> 100 µM

Next compound: "COc1ccc2c(c1)CCCN2S(=O)(=O)c1ccccc1[N+](=O)[O-]"
> 97.1 µM

And for "CC(C)(C)OC(=O)c1ccc(NCC2=CC(=O)C=CC2=O)cc1" ?
46 µM

Another compound to look at: "CC(C)(C)c1cc(OCc2nnc3sc(=S)[nH]n23)c(Cl)cc1OCc1nnc2sc(=S)[nH]n12"
> 100 µM
